target: human Gal-1 (hGal-1) (Homo sapiens, UniProt P09382); experiment: Competitive binding assay: biotinylated hGal-1 to microplate-adsorbed asialofetuin (ASF); settings: Activities on hGal-1; binding to ASF-coated plates, 3 hours at 4° C.; mean values; read-out: Gal-1 IC50
Sequence (P09382 2-135 limits assumed): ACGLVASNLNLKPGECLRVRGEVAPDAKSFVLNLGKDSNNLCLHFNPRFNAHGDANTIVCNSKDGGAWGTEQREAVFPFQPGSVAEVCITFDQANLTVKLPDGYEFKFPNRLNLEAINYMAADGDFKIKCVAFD
value.type: pIC50
Just the number, please; pIC50 means minus log10 of the concentration in mol/L.

The cases that follow already have their pIC50 on record.
So the reported pIC50 for CO[C@@H]1[C@@H](n2cc(-c3cc(F)c(F)c(F)c3)nn2)[C@@H](O)[C@@H](CO)O[C@@H]1CC1=NOC2(CCC(C(C)C)CC2)C1 (some centres unmarked) , on human Gal-1 (hGal-1) (Homo sapiens, UniProt P09382), turned out to be 4.95

Entry `CO[C@@H]1[C@@H](n2cc(-c3ccc(C)c(F)c3F)nn2)[C@@H](O)[C@@H](CO)O[C@@H]1CN1CC2(CCOCC2)OC1=O` , tested on human Gal-1 (hGal-1) (Homo sapiens, UniProt P09382), has a reported pIC50 of 5.64

pIC50 value, target or system human Gal-1 (hGal-1) (Homo sapiens, UniProt P09382), for `CO[C@@H]1[C@@H](n2cc(-c3cc(F)c(F)c(F)c3)nn2)[C@@H](O)[C@@H](CO)O[C@@H]1CC1=NOC2(CCC2)C1` : 5.66

Measured pIC50 for this entry `CO[C@@H]1[C@@H](n2cc(-c3cc(F)cc(Cl)c3)nn2)[C@@H](O)[C@@H](CO)O[C@@H]1CC1=NOC2(CCCCC2)C1` on human Gal-1 (hGal-1) (Homo sapiens, UniProt P09382): 5.38

Others:
Record `CO[C@@H]1[C@@H](n2cc(-c3ccc(C)c(F)c3F)nn2)[C@@H](O)[C@@H](CO)O[C@@H]1CC1=NO[C@]2(CC[C@@H](NC(=O)OC(C)(C)C)CC2)C1` ; system human Gal-1 (hGal-1) (Homo sapiens, UniProt P09382); pIC50 = 5.31

For the compound CO[C@@H]1[C@@H](n2cc(-c3ccc(C)c(F)c3F)nn2)[C@@H](O)[C@@H](CO)O[C@@H]1CC1=NOC2(CCC(C#N)CC2)C1 (some centres unmarked) , the measured pIC50 on human Gal-1 (hGal-1) (Homo sapiens, UniProt P09382) was 5.72

pIC50 on human Gal-1 (hGal-1) (Homo sapiens, UniProt P09382) for `CO[C@@H]1[C@@H](n2cc(-c3ccc(F)c(F)c3F)nn2)[C@@H](O)[C@@H](CO)O[C@@H]1CC1=NO[C@]2(CC[C@H](C#N)CC2)C1` is 6.66

* * *

target: human Gal-1 (hGal-1) (Homo sapiens); test: Competitive binding assay: biotinylated hGal-1 to microplate-adsorbed asialofetuin (ASF); conditions: Activities on hGal-1; binding to ASF-coated plates, 3 hours at 4° C.; mean values; read-out: Gal-1 IC50
Examples of compounds with documented IC50 follow.
# output: bare number, implied unit nM

Solved entries:
GET /value?item= CO[C@@H]1[C@@H](n2cc(-c3cc(F)c(F)c(F)c3)nn2)[C@@H](O)[C@@H](CO)O[C@@H]1CC1=NO[C@]2(CC[C@@H](NC3CC3)CC2)C1 [Example 2.23] &field=IC50 returns 1600

Lab book: IC50 of CO[C@@H]1[C@@H](n2cc(-c3ccc(F)c(F)c3F)nn2)[C@@H](O)[C@@H](CO)O[C@@H]1CC1=NO[C@]2(CC[C@@H](C#N)CC2)C1 [Example 1.58] noted as 640

Record CO[C@@H]1[C@@H](n2cc(-c3ccc(C)c(F)c3F)nn2)[C@@H](O)[C@@H](CO)O[C@@H]1CC1=NOC2(CCC(F)(F)CC2)C1 [Example 1.26] , field IC50: 4000

Entry CO[C@@H]1[C@@H](n2cc(-c3ccc(Cl)c(F)c3F)nn2)[C@@H](O)[C@@H](CO)O[C@@H]1CC1=NOC2(CCN(C(=O)OC(C)(C)C)C2)C1 (mixture of isomers) [Example 1.79] ; IC50 = 4800

# IC50 (compound: CO[C@@H]1[C@@H](n2cc(-c3ccc(C)c(F)c3F)nn2)[C@@H](O)[C@@H](CO)O[C@@H]1CN1CC2(CCCCC2)OC1=O [Example 3.02] ) is 1400

---
Value of IC50 reported for the compound CO[C@@H]1[C@@H](n2cc(-c3cc(F)c(F)c(F)c3)nn2)[C@@H](O)[C@@H](CO)O[C@@H]1CC1=NO[C@]2(CC[C@H](NC3CC3)CC2)C1 [Example 2.22] is 1300

IC50 in this record for CO[C@@H]1[C@@H](n2cc(-c3ccc(F)c(F)c3F)nn2)[C@@H](O)[C@@H](CO)O[C@@H]1CC1=NO[C@]2(CC[C@@H](NC(=O)OC(C)(C)C)CC2)C1 [Example 1.42] : 850

The compound identified as CO[C@@H]1[C@@H](n2cc(-c3cc(F)c(F)c(F)c3)nn2)[C@@H](O)[C@@H](CO)O[C@@H]1CC1=NOC2(CCN(S(C)(=O)=O)CC2)C1 [Example 2.31] registered its IC50 at 3500

Looking up CO[C@@H]1[C@@H](n2cc(-c3ccc(F)c(F)c3F)nn2)[C@@H](O)[C@@H](CO)O[C@@H]1CC1=NOC2(CCCCC2)C1 [Example 1.13] , I see its IC50 listed as 520
